system: MCF7; assay: Cytotoxicity against human MCF7 cells assessed as growth inhibition after 96 hrs by MTT assay; type: functional, cell-based
// assign label 1 if IC50 falls strictly below 30 µM, else label 0 (ties count as label 0)

Query: Please state whether IC50 is below 30 µM for COc1ccc(Cc2nc(NC3=NC(=O)N(C)C3=O)n(C)c2Cc2ccc(OC)cc2)cc1
Reply: label 1

Query: # check: IC50 < 30 µM for COC1=C(OC)C(=O)c2c(cc3c(nc(N)n3C)c2-c2ccc(OC)cc2)C1=O
Reply: label 0

Query: Field: below-cutoff. Rule: recorded IC50 strictly less than 30 µM. Subject: COc1ccc(-c2c3cc(OC)c(OC)cc3cc3c2ncn3C)cc1
Reply: label 0

Query: Report whether reported IC50 is lower than 30 µM (strictly) for COc1ccc(-c2c3cc(OC)c(OC)c(OC)c3cc3c2ncn3C)cc1
Reply: label 0

---

tested on: MCF7; assay: Cytotoxicity against human MCF7 cells assessed as growth inhibition after 96 hrs by MTT assay; assay type: functional, cell-based
Could you mark each record True if its IC50 falls strictly under 30 µM, and False if it equals or exceeds it?

Reference set (5 entries):
{"Compound": "CN1C(=O)N=C(Nc2nc(Cc3ccc4c(c3)OCO4)cn2C)C1=O", "Cat": "False"}
{"Compound": "COc1ccc(-c2c3ncn(C)c3cc3cc(OC)c(OC)c(OC)c23)cc1", "Cat": "False"}
{"Compound": "COc1ccc(-c2c3nc(N)n(C)c3cc3cc(OC)c(OC)c(OC)c23)cc1", "Cat": "True"}
{"Compound": "COc1ccc(-c2c3cc(OC)c(OC)c(OC)c3cc3c2nc(N)n3C)cc1", "Cat": "True"}
{"Compound": "COC1=C(OC)C(=O)c2c(cc3c(ncn3C)c2-c2ccc(OC)cc2)C1=O", "Cat": "False"}

Query: # TODO verify IC50 < 30 µM strictly for this compound: COc1ccc(Cn2cc(Cc3ccc(OC)c(OC)c3)nc2N)cc1
Reply: True

Query: Hello, I'm reviewing records and need to know if IC50 of COc1ccc(Cc2nc(N)n(C)c2Cc2ccc(OC)cc2)cc1 is below 30 µM. Could you check?
Reply: True

Query: State whether 30 µM exceeds IC50 recorded for COc1ccc(-c2c3cc(O)c(OC)cc3cc3c2ncn3C)cc1 .
Reply: False

Query: Regarding COc1ccc(-c2c3[nH]c(=O)n(C)c3cc3cc(OC)c(OC)c(OC)c23)cc1 , kindly confirm whether its IC50 is beneath 30 µM.
Reply: False

Query: Is IC50 strictly under 30 µM for the entry COc1ccc(-c2c3cc(OCc4ccccc4)c(OC)cc3cc3c2ncn3C)cc1 ?
Reply: False

Query: In the record for COc1ccc(Cc2c(C(OC)c3ccc(OC)cc3)nc(N)n2C)cc1 (configuration not stated) , is IC50 less than 30 µM?
Reply: True

Query: Given the entry COc1ccc(-c2c3cc(OC)c(OC)cc3cc3c2nc(N)n3C)cc1 , would its reported IC50 be below 30 µM?
Reply: True

Query: Given the entry Cn1cnc(Cc2ccc3c(c2)OCO3)c1 , would its reported IC50 be below 30 µM?
Reply: False

Query: Dear colleague, could you confirm whether IC50 of COC1=C(OC)C(=O)c2c(cc3c([nH]c(=O)n3C)c2-c2ccc(OC)cc2)C1=O falls below 30 µM? Thanks.
Reply: False

Query: Determine if COc1ccc(-c2c3cc(O)c(OC)cc3cc3c2[nH]c(=N)n3C)cc1 shows IC50 strictly lower than 30 µM.
Reply: False

Query: # check: IC50 < 30 µM for Cn1cc(Cc2ccc3c(c2)OCO3)nc1N
Reply: True

Query: Determine if COc1ccc(Cn2cc(Cc3ccc(OC)c(OC)c3)nc2/N=C2/NC(=O)N(C)C2=O)cc1 shows IC50 strictly lower than 30 µM.
Reply: True
